EC50: recorded values
# SYSTEM UNDER TEST: Human AhR (Homo sapiens, UniProt P35869)
# Construct: expressed in transfected cells
# METHOD: hAHR Nuclear Translocation Assay
# Type: cell-based
# TEST PARAMETERS: AhR-EGFP nuclear translocation in Jump-In T-REx HEK293 cells, 45 minutes incubation; numeric values; read-out: Rel EC50
MEASUREMENT KIND: EC50 (nM)

{"COMPOUND": "O=C(Nc1ncc(F)cn1)c1cc2ccccc2n2ccnc12", "MEASUREMENT KIND": "EC50", "RESULT NUMBER": 0.585}
{"COMPOUND": "CC1CCc2c1cc(C(=O)Nc1ccccn1)c1nncn21 (single isomer, unassigned)", "MEASUREMENT KIND": "EC50", "RESULT NUMBER": 5.37}
{"COMPOUND": "C[C@H]1CCc2c1cc(C(=O)Nc1ccccn1)c1nccn21 (single isomer, unassigned)", "MEASUREMENT KIND": "EC50", "RESULT NUMBER": 1.32}
{"COMPOUND": "C[C@H]1CCc2c1cc(C(=O)Nc1ncccn1)c1nccn21 (single isomer, unassigned)", "MEASUREMENT KIND": "EC50", "RESULT NUMBER": 9.8}

====

# SYSTEM UNDER TEST: Human AhR (Homo sapiens, UniProt P35869)
# Construct: expressed in transfected cells
# Sequence (P35869 11-848): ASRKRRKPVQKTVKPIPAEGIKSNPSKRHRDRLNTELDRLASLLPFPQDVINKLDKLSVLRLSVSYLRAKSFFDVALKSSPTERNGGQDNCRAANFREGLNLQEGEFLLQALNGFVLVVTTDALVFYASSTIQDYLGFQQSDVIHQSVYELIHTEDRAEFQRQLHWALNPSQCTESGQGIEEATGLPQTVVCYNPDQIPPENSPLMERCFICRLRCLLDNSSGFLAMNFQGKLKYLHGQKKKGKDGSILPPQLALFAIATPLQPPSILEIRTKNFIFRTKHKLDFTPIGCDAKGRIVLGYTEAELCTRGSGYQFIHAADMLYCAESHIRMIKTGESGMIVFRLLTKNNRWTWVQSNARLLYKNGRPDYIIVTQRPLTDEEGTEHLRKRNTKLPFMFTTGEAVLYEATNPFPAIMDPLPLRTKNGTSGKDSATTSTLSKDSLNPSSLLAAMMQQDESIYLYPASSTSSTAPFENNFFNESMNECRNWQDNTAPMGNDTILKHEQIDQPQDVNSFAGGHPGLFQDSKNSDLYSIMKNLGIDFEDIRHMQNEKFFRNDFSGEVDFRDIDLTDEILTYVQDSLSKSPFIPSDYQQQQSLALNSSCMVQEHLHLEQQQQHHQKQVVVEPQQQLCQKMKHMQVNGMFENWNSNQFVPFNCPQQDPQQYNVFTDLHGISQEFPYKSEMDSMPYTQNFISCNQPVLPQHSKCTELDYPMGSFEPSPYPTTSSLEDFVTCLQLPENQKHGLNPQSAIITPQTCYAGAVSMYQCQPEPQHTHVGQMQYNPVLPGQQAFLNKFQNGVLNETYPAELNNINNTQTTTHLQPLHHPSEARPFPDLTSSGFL
# METHOD: hAHR Nuclear Translocation Assay
# Type: cell-based
# TEST PARAMETERS: AhR-EGFP nuclear translocation in Jump-In T-REx HEK293 cells, 45 minutes incubation; class symbols; read-out: Rel EC50

{"COMPOUND": "CC1CCc2c1cc(C(=O)Nc1ccno1)c1nncn21 (single isomer, unassigned) [Example 44]", "EC50": "> 50 nM"}
{"COMPOUND": "CC(C)C1CCc2c1cc(C(=O)Nc1ncc(F)cn1)c1nncn21 (single isomer, unassigned) [Example 59]", "EC50": "10 to 50 nM"}
{"COMPOUND": "CC1CCc2c1cc(C(=O)Nc1ncco1)c1nncn21 (single isomer, unassigned) [Example 30]", "EC50": "10 to 50 nM"}
{"COMPOUND": "CC(C)OC1CCc2c1cc(C(=O)Nc1ncc(F)cn1)c1nncn21 (single isomer, unassigned) [Example 50]", "EC50": "> 50 nM"}
{"COMPOUND": "CCCC1CCc2c1cc(C(=O)Nc1ncc(F)cn1)c1nncn21 (single isomer, unassigned) [Example 68]", "EC50": "10 to 50 nM"}
{"COMPOUND": "CC1CCc2c1cc(C(=O)Nc1ncc(Cl)cn1)c1nncn21 (single isomer, unassigned) [Example 47]", "EC50": "1 to 10 nM"}
{"COMPOUND": "O=C(Nc1ncc(F)cn1)c1cc2c(n3cnnc13)CCC2C1CCC1 (single isomer, unassigned) [Example 64]", "EC50": "1 to 10 nM"}
{"COMPOUND": "CC(C)c1nnc2c(C(=O)Nc3ncc(F)cn3)cc3c(n12)CCC3C (single isomer, unassigned) [Example 55]", "EC50": "> 50 nM"}
{"COMPOUND": "CCC(C)C1CCc2c1cc(C(=O)Nc1ncc(F)cn1)c1nncn21 (single isomer, unassigned) [Example 60]", "EC50": "10 to 50 nM"}
{"COMPOUND": "CC1CCc2c1cc(C(=O)Nc1nccs1)c1nncn21 (single isomer, unassigned) [Example 25]", "EC50": "1 to 10 nM"}
{"COMPOUND": "COc1ccccc1NC(=O)c1cc2c(n3cnnc13)CCC2C (single isomer, unassigned) [Example 20]", "EC50": "> 50 nM"}
{"COMPOUND": "Cc1cnc(NC(=O)c2cc3c(n4cnnc24)CCC3C)nc1 (single isomer, unassigned) [Example 28]", "EC50": "10 to 50 nM"}
{"COMPOUND": "CC1CCc2c1cc(C(=O)Nc1ncccc1F)c1nncn21 (single isomer, unassigned) [Example 36]", "EC50": "1 to 10 nM"}
{"COMPOUND": "CC1CCc2c1cc(C(=O)Nc1ncc(Cl)cn1)c1nncn21 (single isomer, unassigned) [Example 46]", "EC50": "1 to 10 nM"}
{"COMPOUND": "COc1ccccc1NC(=O)c1cc2c(n3cnnc13)CCC2C (single isomer, unassigned) [Example 21]", "EC50": "> 50 nM"}
{"COMPOUND": "COc1cnc(NC(=O)c2cc3c(n4cnnc24)CCC3C)nc1 (single isomer, unassigned) [Example 49]", "EC50": "10 to 50 nM"}
{"COMPOUND": "CC1CCc2c1cc(C(=O)Nc1ncccc1F)c1nncn21 (single isomer, unassigned) [Example 37]", "EC50": "1 to 10 nM"}
{"COMPOUND": "CC1CCc2c1cc(C(=O)Nc1ccon1)c1nncn21 (single isomer, unassigned) [Example 32]", "EC50": "1 to 10 nM"}
{"COMPOUND": "CC1CCc2c1cc(C(=O)Nc1ccc(C(F)(F)F)cn1)c1nncn21 (single isomer, unassigned) [Example 34]", "EC50": "1 to 10 nM"}
{"COMPOUND": "CC1CCc2c1cc(C(=O)Nc1ncc(C(F)(F)F)cn1)c1nncn21 (single isomer, unassigned) [Example 26]", "EC50": "1 to 10 nM"}
{"COMPOUND": "O=C(Nc1ncc(F)cn1)c1cc2c(n3cnnc13)CCC2C1CC1 (single isomer, unassigned) [Example 67]", "EC50": "1 to 10 nM"}
{"COMPOUND": "CC1CCc2c1cc(C(=O)Nc1ccccn1)c1nncn21 (single isomer, unassigned) [Example 4]", "EC50": "> 50 nM"}
{"COMPOUND": "CCC1CCc2c1cc(C(=O)Nc1ncc(F)cn1)c1nncn21 (single isomer, unassigned) [Example 56]", "EC50": "1 to 10 nM"}
{"COMPOUND": "CCC1CCc2c1cc(C(=O)Nc1ncc(F)cn1)c1nncn21 (single isomer, unassigned) [Example 57]", "EC50": "1 to 10 nM"}
{"COMPOUND": "CC1CCc2c1cc(C(=O)Nc1cnn(C)n1)c1nncn21 (single isomer, unassigned) [Example 61]", "EC50": "1 to 10 nM"}
{"COMPOUND": "COc1cnc(NC(=O)c2cc3c(n4cnnc24)CCC3C)nc1 (single isomer, unassigned) [Example 48]", "EC50": "10 to 50 nM"}
{"COMPOUND": "CC1CCc2c1cc(C(=O)Nc1ccc(C(F)(F)F)cn1)c1nncn21 (single isomer, unassigned) [Example 35]", "EC50": "1 to 10 nM"}

====

# SYSTEM UNDER TEST: Human AhR (Homo sapiens, UniProt P35869)
# Construct: expressed in transfected cells
# METHOD: hAHR Nuclear Translocation Assay
# Type: cell-based
# TEST PARAMETERS: AhR-EGFP nuclear translocation in Jump-In T-REx HEK293 cells, 45 minutes incubation; numeric values; read-out: Rel EC50
Classes are defined on EC50 with ranges low class: < 2 nM; middle class: ≥ 2 nM and < 6 nM; high class: ≥ 6 nM

{"COMPOUND": "C[C@H]1CCc2c1cc(C(=O)Nc1ncc(F)cn1)c1nncn21", "CAT": "middle class"}
{"COMPOUND": "CC1CCc2c1cc(C(=O)Nc1ccccn1)c1nccn21 (single isomer, unassigned)", "CAT": "middle class"}
{"COMPOUND": "CC1CCc2c1cc(C(=O)Nc1ncc(F)cn1)c1nccn21 (single isomer, unassigned)", "CAT": "low class"}
{"COMPOUND": "C[C@@H]1CCc2c1cc(C(=O)Nc1ncc(F)cn1)c1nncn21", "CAT": "middle class"}
{"COMPOUND": "CC1CCc2c1cc(C(=O)Nc1ncccn1)c1nncn21 (single isomer, unassigned)", "CAT": "high class"}
{"COMPOUND": "C[C@H]1CCc2c1cc(C(=O)Nc1ncc(F)cn1)c1nccn21 (single isomer, unassigned)", "CAT": "low class"}
{"COMPOUND": "CC1CCc2c1cc(C(=O)Nc1ncccn1)c1nccn21 (single isomer, unassigned)", "CAT": "low class"}
{"COMPOUND": "O=C(Nc1ncc(F)cn1)c1cc2ccccc2n2cnnc12", "CAT": "middle class"}
{"COMPOUND": "C[C@H]1CCc2c1cc(C(=O)Nc1ncccn1)c1nncn21 (single isomer, unassigned)", "CAT": "high class"}
